Test system: Scedosporium apiospermum
Test: Antifungal activity in vitro, resazurin growth inhibition: Scedosporium apiospermum (IHEM3817)
Type: cell-based
Reported Inf. H: Scedosporium apiospermum IHEM3817, pIC50 values are given for each entry in this list.
QUANTITY NAME: Inf. H: Scedosporium apiospermum IHEM3817, pIC50

- Cn1nnc2ccc(C3=NCc4c(Cl)cc(Cl)cc4-n4cccc43)cc21 [Compound 111]: 5.77
- Cc1ccc2cc(C3=NCc4c(Cl)cccc4-n4cccc43)oc2c1 [Compound 138]: 5.78
- Fc1ccc2oc(C3=NCc4c(Cl)cccc4-n4cccc43)cc2c1 [Compound 123]: 6.02

###

System: Trichophyton rubrum
Test: Antifungal activity in vitro, resazurin growth inhibition: Trichophyton rubrum (B68183)
Type: cell-based
Quick rule for you: Inf. C: Trichophyton rubrum B68183, pIC50 at 6 or higher means fulfilled, lower means not fulfilled.

• Clc1cccc2c1CN=C(c1ccncc1)c1cccn1-2 [Compound 198] = not fulfilled
• COc1ccc2oc(C3=NCc4c(Cl)cccc4-n4cccc43)cc2c1 [Compound 146] = fulfilled
• Cc1ccc2oc(C3=NCc4c(Cl)cc(Cl)cc4-n4cccc43)cc2c1 [Compound 136] = not fulfilled
• Clc1cc(Cl)c2c(c1)-n1cccc1C(c1ccc3ncsc3c1)=NC2 [Compound 187] = fulfilled
• Cl.c1ccc2c(c1)CNC(c1cc3ccccc3o1)c1cccn1-2 (racemic) [Compound 29] = not fulfilled
• Clc1cccc2c1CN=C(c1ccc3ncsc3c1)c1cccn1-2 [Compound 184] = fulfilled
• Fc1cc(F)c2oc(C3=NCc4c(Cl)cccc4-n4cccc43)cc2c1 [Compound 128] = fulfilled
• Clc1ccc2c(c1)-n1cccc1C(c1ccc3scc(Cl)c3c1)=NC2 [Compound 178] = not fulfilled
• Cc1cccc2oc(C3NCc4c(Cl)cccc4-n4cccc43)cc12.Cl (racemic) [Compound 36] = not fulfilled
• Fc1cc(F)c2c(c1)-n1cccc1C(c1cc3cc(Cl)cnc3o1)=NC2 [Compound 158] = not fulfilled
• CCc1cc(C2=NCc3c(Cl)cccc3-n3cccc32)on1 [Compound 63] = not fulfilled
• Cc1cccc2c1CN=C(c1ccc(C(F)(F)F)nc1)c1cccn1-2 [Compound 88] = fulfilled
• FC(F)(F)c1ccc(C2=NCc3c(Cl)cccc3-n3cccc32)cn1 [Compound 89] = fulfilled
• Clc1cccc2c1-n1cccc1C(c1cc3ccccc3s1)=NC2 [Compound 167] = fulfilled
• Cc1cc(C2=NCc3ccccc3-n3cccc32)ccn1 [Compound 95] = not fulfilled
• FC(F)(F)c1ncc(C2=NCc3ccccc3-n3cccc32)cn1 [Compound 101] = not fulfilled
• Cc1cccc2c1-n1cccc1C(c1cc3ccccc3s1)NC2.Cl (racemic) [Compound 55] = fulfilled
• Cc1ccc2cc(C3=NCc4c(F)cc(F)cc4-n4cccc43)ccc2n1 [Compound 114] = not fulfilled
• Cc1ccc2cc(C3NCc4c(C)cccc4-n4cccc43)oc2c1.Cl (racemic) [Compound 40] = not fulfilled
• Cl.Clc1cccc2c1CNC(c1cc3ccccc3o1)c1cccn1-2 (racemic) [Compound 30] = fulfilled
• Fc1cccc2c1CN=C(c1ccc3occ(Cl)c3c1)c1cccn1-2 [Compound 153] = not fulfilled
• Clc1cccc2c1CN=C(c1ccc3scnc3c1)c1cccn1-2 [Compound 188] = fulfilled
• Clc1ccc2c(c1)-n1cccc1C(c1cc3ccccc3s1)=NC2 [Compound 166] = not fulfilled
• Fc1cc(F)c2c(c1)-n1cccc1C(c1ccc3sccc3c1)=NC2 [Compound 176] = fulfilled
• CCc1ccc(C2NCc3c(Cl)cccc3-n3cccc32)nc1.Cl (racemic) [Compound 13] = not fulfilled
• Clc1ccc2c(c1)-n1cccc1C(c1ccc3sccc3c1)=NC2 [Compound 173] = fulfilled
• CC(F)(F)c1ccc(C2=NCc3c(F)cccc3-n3cccc32)cn1 [Compound 83] = fulfilled
• Cl.FC(F)(F)c1ccc(C2NCc3ccccc3-n3cccc32)cn1 (racemic) [Compound 15] = not fulfilled
